system_tested: Prostaglandin G/H synthase 2 (Ovis aries)
Sequence (whole entry): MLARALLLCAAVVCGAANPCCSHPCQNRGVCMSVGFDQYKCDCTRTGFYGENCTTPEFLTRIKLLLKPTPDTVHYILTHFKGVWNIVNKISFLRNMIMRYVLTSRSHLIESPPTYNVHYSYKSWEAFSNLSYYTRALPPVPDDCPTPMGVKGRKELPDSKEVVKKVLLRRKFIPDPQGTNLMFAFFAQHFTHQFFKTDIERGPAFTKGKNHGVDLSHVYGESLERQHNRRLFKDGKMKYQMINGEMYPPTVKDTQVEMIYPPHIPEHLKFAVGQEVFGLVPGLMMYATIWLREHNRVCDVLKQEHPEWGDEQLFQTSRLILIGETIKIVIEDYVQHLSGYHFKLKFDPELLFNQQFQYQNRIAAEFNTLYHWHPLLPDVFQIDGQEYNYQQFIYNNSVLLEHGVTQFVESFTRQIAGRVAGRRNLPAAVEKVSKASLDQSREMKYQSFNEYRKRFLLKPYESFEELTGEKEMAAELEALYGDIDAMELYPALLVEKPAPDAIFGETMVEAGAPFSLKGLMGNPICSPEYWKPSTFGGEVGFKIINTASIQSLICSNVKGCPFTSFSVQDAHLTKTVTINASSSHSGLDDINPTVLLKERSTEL
assay_info: Inhibition of ovine COX2 at 1 mM by colorimetric assay
Quick reference for inhibition among some compounds
Please reply with the bare figure in % and do not write the unit itself.

// solved cases for inhibition follow
COc1cc(OC)c(C(=O)/C=C/c2ccccc2Br)c(O)c1CN1CCCC1	20.4
COc1cc(OC)c(C(=O)/C=C/c2cccc(Cl)c2)c(O)c1CN1CCCCC1	87.9
COc1cc(OC)c(C(=O)/C=C/c2ccccc2Cl)c(O)c1CN1CCN(C)CC1	68.8
COc1cc(OC)c(C(=O)/C=C/c2ccccc2Br)c(O)c1CN1CCCCC1	69.8
COc1cc(OC)c(C(=O)/C=C/c2cccc(Br)c2)c(O)c1CN1CCCC1	19.9

Query :: For the compound `COc1cc(OC)c(C(=O)/C=C/c2cccc(F)c2)c(O)c1CN1CCOCC1` , what inhibition is on record?
Result :: 38.9

Query :: Moving on to `COc1cc(OC)c(C(=O)/C=C/c2ccccc2Cl)c(O)c1CN1CCCCC1`
Result :: 91.5

Query :: Moving on to `COc1cc(OC)c(C(=O)/C=C/c2ccccc2Cl)c(O)c1CN1CCCC1`
Result :: 42.5

Query :: Moving on to `COc1cc(OC)c(C(=O)/C=C/c2cccc(F)c2)c(O)c1CN1CCN(C)CC1`
Result :: 24.6

Query :: Moving on to `COc1cc(OC)c(C(=O)/C=C/c2cccc(Br)c2)c(O)c1CN1CCCCC1`
Result :: 87.5

Query :: Moving on to `COc1cc(OC)c(C(=O)/C=C/c2cccc(F)c2)c(O)c1CN1CCCC1`
Result :: 21.4

Query :: Moving on to `COc1cc(O)c(CN2CCCC2)c(O)c1C(=O)/C=C/c1ccccc1F`
Result :: 21.4

Query :: Moving on to `COc1cc(OC)c(C(=O)/C=C/c2cccc(Cl)c2)c(O)c1CN1CCOCC1`
Result :: 48.2

Query :: Moving on to `COc1cc(OC)c(C(=O)/C=C/c2ccccc2Br)c(O)c1CN1CCN(C)CC1`
Result :: 48.9

Query :: Moving on to `COc1cc(OC)c(C(=O)/C=C/c2ccccc2F)c(O)c1CN1CCN(C)CC1`
Result :: 44.9
